test system: K-562 leukemia
Possible outcomes: active, inactive

Smiles Structure | Category Label
CCCNc1nc(N(C)O)nc(N(C)O)n1 | inactive
O=C(CCCn1c2c(sc3ncccc32)c(=O)n2nnc(-c3ccccc3)c12)NCCc1cnc[nH]1 | active
CCN1CCC[C@H]1c1cc(O)c2c(c1OC)C[C@H]1C[C@H]3[C@H](N)C(=O)C(C(N)=O)=C(O)[C@@]3(O)C(=O)C1=C2O | active

====

system: SN12C renal; assay: NCI tumour cell line growth inhibition, 48 h
Reported values of TGI for individual entries

Smiles Structure | System | TGI
CN1CCc2c(sc3nc(Nc4ccccc4)n(N)c(=O)c23)C1 | SN12C renal | > 100 µM
COc1ccc2c(=O)c([Se]c3coc4cc(OC)ccc4c3=O)coc2c1 | SN12C renal | > 100 µM
O=C(N=Nc1ccc([N+](=O)[O-])cc1)NNc1ccc([N+](=O)[O-])cc1 | SN12C renal | 40.5 µM
O=C(N/N=C(/COc1cccc(Cl)c1)N=Cc1ccncc1)c1ccncc1 | SN12C renal | > 100 µM
COc1ccc2nc(-c3ccc(OC(=O)N(C)C)cc3)cn2c1 | SN12C renal | > 100 µM

The measured values listed here are drawn from PubChem BioAssay (NCI).
